- Measurement Notes: Inhibition of HCV NS3/4A serine protease by continuous spectrophotometric assay
- Parameters: species or system Hepacivirus hominis

Compound	Ki / µM
C=CCNC(=O)C(=O)C(CCC1CC1)NC(=O)[C@@H]1CC2(CN1C(=O)[C@@H](NC(=O)N[C@@H](CN1C(=O)CC(C)(C)CC1=O)C(C)(C)C)C(C)(C)C)SCCS2 (stereo partly specified)	0.013
C=CCNC(=O)C(=O)C(CC1CC1)NC(=O)[C@@H]1CC2(CN1C(=O)[C@@H](NC(=O)NC1(CS(=O)(=O)C(C)(C)C)CCCCC1)C(C)(C)C)SCCS2 (stereo partly specified)	0.033
C=CCNC(=O)C(=O)C(CCC)NC(=O)[C@@H]1CC2(CN1C(=O)[C@@H](NC(=O)N[C@@H](CN1C(=O)CC(C)(C)CC1=O)C(C)(C)C)C(C)(C)C)SCCS2 (stereo partly specified)	0.005
CC(C)(C)NC(=O)N[C@H](C(=O)N1CC2(C[C@H]1C(=O)NC(CC1CC1)C(=O)C(N)=O)SCCS2)C(C)(C)C (stereo partly specified)	0.3
C=CCNC(=O)C(=O)C(CCC)NC(=O)[C@@H]1CC2(CN1C(=O)[C@@H](NC(=O)NC1(CS(=O)(=O)C(C)(C)C)CCCCC1)C1(C)CCCCC1)SCCS2 (stereo partly specified)	0.019
C=CCNC(=O)C(=O)C(CCC)NC(=O)[C@@H]1CC2(CN1C(=O)[C@@H](NC(=O)NC1(CS(=O)(=O)C(C)(C)C)CCCCC1)C(C)(C)C)SCCCS2 (stereo partly specified)	0.007
